Values compiled from the supplement of paper PMC6992640.

# cell viability annotations
System: UCD52 (cells of a triple-negative basal-like breast cancer xenograft);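 further: PDX cells carrying CMV promoter-driven luciferase, viability read as total photon flux per second by IVIS imaging following D-luciferin, vehicle control 0.1% DMSO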
Measurement Notes: cell viability (% of vehicle); higher = less cytotoxic
Cond: 10 µM; 72 h
Give the figure by itself; no unit, no explanation.

Cn1c(=O)cc(N2CCCC(N)C2)n(Cc2cc(F)ccc2C#N)c1=O (stereo unspecified); 96.2
CN1CCC(=C2c3ccccc3CC(=O)c3sccc32)CC1.O=C(O)C=CC(=O)O [Ketotifen Fumarate]; 95.4
Nc1cccc2c1CN(C1CCC(=O)NC1=O)C2=O (stereo unspecified) [Lenalidomide (CC-5013)]; 80.5
CC1OC(OC2C(CO)OC(OC3C(CO)OC(O)C(O)C3O)C(O)C2O)C(O)C(O)C1NC1C=C(CO)C(O)C(O)C1O (stereo unspecified); 93.3
CCCCCCCCc1ccc(CCC(N)(CO)CO)cc1.Cl; 25.6
CC1(C)CCC(CN2CCN(c3ccc(C(=O)NS(=O)(=O)c4ccc(NCC5CCOCC5)c([N+](=O)[O-])c4)c(Oc4cnc5[nH]ccc5c4)c3)CC2)=C(c2ccc(Cl)cc2)C1; 101

input: Please report the recorded cell viability for COc1ccc(C2CNC(=O)C2)cc1OC1CCCC1 (stereo unspecified) [Rolipram] .
output: 102

input: Please report the recorded cell viability for CCn1cc(C(=O)O)c(=O)c2cc(F)c(N3CCNC(C)C3)c(F)c21.Cl (stereo unspecified) [Lomefloxacin HCl] .
output: 91.5

input: Please report the recorded cell viability for COC(=O)N(C)c1c(N)nc(-c2nn(Cc3ccccc3F)c3ncccc23)nc1N .
output: 104

input: Please report the recorded cell viability for Cc1nnc(SCC2=C(C(=O)[O-])N3C(=O)[C@@H](NC(=O)Cn4cnnn4)[C@H]3SC2)s1.[Na+] [Cefazolin (sodium salt)] .
output: 119

input: Please report the recorded cell viability for O=C(NC(Cc1cc(=O)[nH]c2ccccc12)C(=O)O)c1ccc(Cl)cc1 (stereo unspecified) [Rebamipide] .
output: 100

input: Please report the recorded cell viability for Br.CN(C)CCC[C@]1(c2ccc(F)cc2)OCc2cc(C#N)ccc21 [Citalopram hydrobromide] .
output: 106

input: Please report the recorded cell viability for NC(=O)NO [Hydroxyurea] .
output: 78.7

input: Please report the recorded cell viability for CC(C[N+](C)(C)C)OC(N)=O.[Cl-] (stereo unspecified) [Bethanechol chloride] .
output: 100

input: Please report the recorded cell viability for CCCCCCCN(CC)CCCC(O)c1ccc(NS(C)(=O)=O)cc1.CCCCCCCN(CC)CCCC(O)c1ccc(NS(C)(=O)=O)cc1.O=C(O)C=CC(=O)O (stereo unspecified) [Ibutilide Fumarate] .
output: 96.8

input: Please report the recorded cell viability for Cc1nc(C(=O)NCC(=O)O)c(O)c2ccc(Oc3ccccc3)cc12 .
output: 107
